Record form. Attribute: IC50 at 72 h. Fill in for each entry.
# experiment-summary: alamarBlue cytotoxicity, range over three cell lines
# Type: cell-based
# condition-info: human; range of concentrations required to inhibit growth of MCF-7, HT-29, and PC-3 cells by 50%

Recorded IC50 at 72 h, per entry:
molecule	measured-result
O=C(O)c1cn(C2CC2)c2cc(N3CCNCC3)c(F)cc2c1=O	> 100 µM
COC(=O)c1cccc2oc(-c3cccc4oc(-c5ccccc5O)nc34)nc12	0.32 to 65 µM
O=C(O)c1cccc2oc(-c3ccccc3OCc3ccccc3)nc12	> 100 µM

(Q) Given Oc1ccccc1-c1nc2ccccc2o1 [drawing 10] , state its recorded IC50 at 72 h.
(A) > 100 µM

###

# Test system: methicillin-resistant S. aureus ATCC 43300
# experiment-summary: Antimicrobial bioassay, methicillin-resistant S. aureus
# Format: cell-based, Staphylococcus aureus
# condition-info: Staphylococcus aureus, ATCC43300; 50% growth of test organism; NA = no activity observed at concentrations up to 50 μg/mL; read-out: Antibacterial IC50 Meth-resist S. aureus
I'd appreciate it if you could supply pIC50 values for the items below.
One number for each entry, as −log10 of the molar value.

Worked cases, pIC50 given:
test-smiles	pIC50
O=C(O)c1cn(C2CC2)c2cc(N3CCNCC3)c(F)cc2c1=O	6.35
O=C(O)c1cccc2[nH]c(-c3ccccc3OCc3ccccc3)nc12	3.99

As a next step, examine the compound that follows.
(Q) Observed pIC50 on methicillin-resistant S. aureus ATCC 43300 for `O=C(O)c1cccc2oc(-c3ccccc3OCc3ccccc3)nc12` , please.
(A) 4.54

###

# Test system: HL60 cells
# experiment-summary: alamarBlue cytotoxicity assay, HL60
# Format: cell-based, human
# condition-info: HL60, alamarBlue, 72 h
readout-label: IC50 (nM)
Answers are plain numbers, in nM.

(Q) Return IC50 measured with HL60 cells given this compound: COC(=O)c1cccc2oc(-c3cccc4oc(-c5ccccc5O)nc34)nc12 [UK-1]
(A) 400

###

# Tested on: SK-N-F1
# experiment-summary: alamarBlue cytotoxicity assay, SK-N-F1
# Format: cell-based
readout-label: IC50 (µM)
Give bare numbers, in µM.

(Q) Return reported IC50; argument: `COC(=O)c1cccc2oc(-c3cccc4oc(-c5ccccc5O)nc34)nc12`
(A) 7

###

Answer each item with its documented IC50 at 72 h.
# experiment-summary: alamarBlue cytotoxicity, range over four cell lines
# Type: cell-based
# condition-info: human
# Description: Cytotoxicity Assays. Cell culture cytotoxicity assays were performed using the. alamarBlue method, as described by Ahmed et al., J. Immun. Methods 1994, 170, 211-224, which is incorporated herein by reference. Briefly, aliquots of 100 μL of cell suspension (1.0-2.5×10^3 cells) was placed in 96-well microtiter plates in an atmosphere of 5% CO2 at 37° C. […] The fluorescent intensity was measured using a Spectrafluor Plus plate reader with excitation at 530 nm and emission at 590 nm.

Some molecules with known IC50 at 72 h results, for comparison:
molecule	IC50 at 72 h
Oc1ccccc1-c1nc2ccccc2o1 [Compound 2.17, 2-(2′-hydroxyphenyl)benzoxazole]	> 100 µM
COC(=O)c1cccc2oc(-c3ccccc3O)nc12	0.88 to 9.1 µM

In the following, a different molecule is considered.
(Q) Need IC50 at 72 h of `COC(=O)c1cccc2[nH]c(-c3cccc4oc(-c5ccccc5O)nc34)nc12` , thanks.
(A) ≥ 70 µM
